# PROCEDURE_DETAILS: Transcellular transport test using Caco2 cell
# Type: in vitro ADME
# CONDITION_DETAILS: human, Caco-2, apical-to-basolateral (A-to-B), pH=7.4, 10 µM compound
Reported Papp A→B at 90 min, 10 µM values for a set of compounds

Below, each entry is followed by its recorded Papp A→B at 90 min, 10 µM result.
>>> df
                                   compound             test_value
0  O=C(O)C[C@H](NC(=O)CNC(=O)c1cc(NC2=NCC(F)CN2)cc2[nH]ncc12)c1cccc(C(F)(F)F)c1 (stereo partly drawn)  0.1 to 0.5 ×10⁻⁶ cm/s
1  O=C(O)C[C@H](NC(=O)CNC(=O)c1cc(NC2=NCC(F)CN2)c2cn[nH]c2c1)c1ccc(OC(F)F)cc1 (stereo partly drawn)         > 1 ×10⁻⁶ cm/s
2  O=C(O)C[C@H](NC(=O)CNC(=O)c1cc(NC2=NCC(F)CN2)c2cn[nH]c2c1)c1ccc(F)c(C(F)(F)F)c1 (stereo partly drawn)         > 1 ×10⁻⁶ cm/s
3  O=C(O)C[C@H](NC(=O)CNC(=O)c1cc(NC2=NCC(F)CN2)c2cn[nH]c2c1)c1cc(Cl)cc(OC(F)F)c1 (stereo partly drawn)         > 1 ×10⁻⁶ cm/s
4  O=C(O)C[C@H](NC(=O)CNC(=O)c1cc(NC2=NCC(F)CN2)c2cn[nH]c2c1)c1cc(Cl)cc(C(F)(F)F)c1 (stereo partly drawn)         > 1 ×10⁻⁶ cm/s

Fill in the blank: the reported Papp A→B at 90 min, 10 µM of O=C(O)C[C@H](NC(=O)CNC(=O)c1cc(NC2=NCC(F)CN2)c2cn[nH]c2c1)c1cccc(C(F)(F)F)c1Cl (stereo partly drawn) is ____. > 1 ×10⁻⁶ cm/s

Request: O=C(O)C[C@H](NC(=O)CNC(=O)c1cc(NC2=NCC(F)CN2)c2cn[nH]c2c1)c1cc(Cl)cc(I)c1 (stereo partly drawn) > 1 ×10⁻⁶ cm/s

# repeat for O=C(O)C[C@H](NC(=O)CNC(=O)c1cc(NC2=NCC(F)CN2)cc2[nH]ncc12)c1cc(Br)cc(C(F)(F)F)c1 (stereo partly drawn) 0.1 to 0.5 ×10⁻⁶ cm/s

Try O=C(O)C[C@H](NC(=O)CNC(=O)c1cc(NC2=NCC(F)CN2)c2cn[nH]c2c1)c1cc(Br)cc(OC(F)(F)F)c1 (stereo partly drawn) next. > 1 ×10⁻⁶ cm/s
